// values below are reported pEC50
Test system: MOLM-13 cells
Assay: MTS cell viability assay, MOLM-13
Format: cell-based, human
Conditions: Homo sapiens, MOLM-13, 72 h, MTS, 72 h; AML-FLT3-ITD (heterozygous); supplement values ± SEM; read-out: MOLM-13 EC50
pEC50: −log10 of the molar value.

chemical structure	pEC50
COCCOc1ccc2ncnc(NCCc3cnc(NC(=O)Nc4cccc(Cl)c4)s3)c2c1	6.39
COCCOc1cc2ncnc(NCCc3cnc(NC(=O)Nc4cccc(Cl)c4)s3)c2cc1OCCOC	7.05
O=C(Nc1cccc(Cl)c1)Nc1ncc(CCNc2ncnc3ccccc23)s1	7.16

----------
Biological target: AURKB (Homo sapiens, UniProt Q96GD4)
Sequence (Q96GD4 whole entry): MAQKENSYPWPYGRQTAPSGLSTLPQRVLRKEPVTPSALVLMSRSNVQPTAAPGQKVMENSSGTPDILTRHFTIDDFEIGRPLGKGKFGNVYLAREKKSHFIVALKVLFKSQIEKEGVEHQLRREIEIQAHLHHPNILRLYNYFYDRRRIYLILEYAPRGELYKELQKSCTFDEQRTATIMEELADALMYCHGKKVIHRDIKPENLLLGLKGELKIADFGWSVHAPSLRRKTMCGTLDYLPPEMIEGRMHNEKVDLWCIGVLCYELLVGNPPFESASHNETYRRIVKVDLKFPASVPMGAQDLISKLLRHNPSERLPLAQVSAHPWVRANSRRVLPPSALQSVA
Test: AURKB inhibition assay (Kinase-Glo)
Assay type: biochemical
Design: full length His-tagged Aurora-B (residues M1∼A344); His; purchased Invitrogen PV6130
Conditions: 500 nM; duplicate determination
Description: AURKB assay was conducted as previously described. Briefly, the recombinant full length His-tagged Aurora-B (residues M1∼A344) was purchased from Invitrogen (Catalog number: PV6130). The kinase assay was carried out in 96-well plates with the tested compound in reaction solution (50 mM Tris-HCl pH 7.4, 10 mM NaCl, 10 mM MgCl2, 0.01% BSA, 5 mM ATP, 1 mM DTT and 15 mM tetra(LRRASLG) peptide, and 40 ng recombinant Aurora-B) at 30°C for 180 min. […]
Parameter threshold = 70%. Response is 1.0 when inhibition at 0.5 µM meets or exceeds it, else 0.0.

compound	class
COc1ccc(Cl)cc1NC(=O)Nc1ncc(CCNc2ncnc3cc(OCCCN(C)C)ccc23)s1 [Compound 13]	0.0
COCCOc1ccc2c(NCCc3cnc(NC(=O)Nc4cccc(Cl)c4)s3)ncnc2c1 [Compound 8]	1.0
Cc1ccc(Cl)cc1NC(=O)Nc1ncc(CCNc2ncnc3cc(OCCCN(C)C)ccc23)s1 [Compound 14]	0.0
CN(C)CCOc1ccc2c(NCCc3cnc(NC(=O)Nc4cccc(Cl)c4)s3)ncnc2c1 [Compound 9]	1.0
O=C(Nc1cccc(Cl)c1)Nc1ncc(CCNc2ncnc3ccccc23)s1 [Compound 5]	1.0
COc1cccc(NC(=O)Nc2ncc(CCNc3ncnc4cc(OCCCN(C)C)ccc34)s2)c1 [Compound 12]	1.0
CN(C)CCCOc1ccc2c(NCCc3cnc(NC(=O)Nc4ccccc4)s3)ncnc2c1 [Compound 11]	1.0
COCCOc1ccc2ncnc(NCCc3cnc(NC(=O)Nc4cccc(Cl)c4)s3)c2c1 [Compound 7]	0.0
COc1cc2ncnc(NCCc3cnc(NC(=O)Nc4cccc(Cl)c4)s3)c2cc1OC [Compound 4]	1.0

----------
System: HCT-116 cells
Experiment: Anti-proliferative activity, HCT-116
Format: cell-based, human
Conditions: HCT-116; Human Colon Cancer; supplement values ± SEM; read-out: HCT-116 EC50
pEC50: −log10 of the molar value.

compound	target entity	pEC50
CN(C)CCCOc1ccc2c(NCCc3cnc(NC(=O)Nc4cccc(Cl)c4)s3)ncnc2c1	HCT-116 cells	6.85
Cc1ccc(F)c(NC(=O)Nc2ccc(-c3cccc4[nH]nc(N)c34)cc2)c1	HCT-116 cells	5.09
Cc1cc(Nc2cc(N3CCN(C)CC3)nc(Sc3ccc(NC(=O)C4CC4)cc3)n2)[nH]n1 [VX-680, reference compound]	HCT-116 cells	7.01
CNC(=O)c1cc(Oc2ccc(NC(=O)Nc3ccc(Cl)c(C(F)(F)F)c3)cc2)ccn1	HCT-116 cells	5.06
